Experiment: Oral bioavailability in C57BL/6 mouse at 25 mg/kg measured for 24 hrs by LC-MS/MS analysis
Format: ADME, organism-based
Conditions: C57BL/6, mouse, in vivo
Kindly state bioavailability for each of the entries shown.
Answers are plain numbers, in %.

givenSmiles	unitOfMeasure	numericValue
Cc1c(-c2cc3cc(NC(=O)O[C@H]4COC[C@@H]4C)ncc3c(N)c2F)cnc2c1NCCO2	%	37

Let's switch to this compound now.
The reported bioavailability of the compound `Cc1c(-c2cc3cc(NC(=O)OC4CCOCC4)ncc3c(N)c2F)cnc2c1NCCO2` was 31

* * *

Kindly state Vd for each of the entries shown.
Assay: Volume of distribution at steady state in Sprague-Dawley rat at 0.5 mg/kg, iv measured for 8 hrs by LC-MS/MS analysis
Type: ADME, organism-based
Conditions: in vivo, read-out: Vdss
Answers are plain numbers, in L/kg.

Study these solved cases before continuing.
givenSmiles	Vd, L/kg
Cc1c(-c2cc3cc(NC(=O)O[C@H]4COC[C@@H]4C)ncc3c(N)c2F)cnc2c1NCCO2	2.2
Cc1c(N)cncc1-c1cc2cc(Nc3cc4n(n3)CC(=O)N(C)CC4)ncc2c(N)c1F	2.2

For the 2 molecules below, give their Vd values.
1. Cc1c(-c2cc3cc(NC(=O)OC4CCOCC4)ncc3c(N)c2F)cnc2c1NCCO2
2. Cc1c(N)cncc1-c1cc2cc(NC(=O)OC3CCOCC3)ncc2c(N)c1F

// result
1.5
3.2

* * *

Assay: Oral bioavailability in Sprague-Dawley rat
Type: ADME, organism-based
Details: in vivo
measurementName: bioavailability (%)
Answers are plain numbers, in %.

Study these solved cases before continuing.
givenSmiles	numericValue
Cc1c(N)cncc1-c1cc2cc(NC(=O)OC3CCOCC3)ncc2c(N)c1F	94
Cc1c(-c2cc3cc(NC(=O)OC4CCOCC4)ncc3c(N)c2F)cnc2c1NCCO2	16

The reported bioavailability of the compound `Cc1c(-c2cc3cc(NC(=O)O[C@H]4COC[C@@H]4C)ncc3c(N)c2F)cnc2c1NCCO2` was 30

* * *

Test: Half life in Beagle dog at 0.5 mg/kg, po or 0.5 mg/kg, iv measured for 24 hrs by LC/MS/MS analysis
Assay type: ADME, organism-based, Canis lupus familiaris
Details: in vivo
measurementName: half-life (h)
One number for each entry, in h.

The reported half-life of the compound `Cc1c(-c2cc3cc(NC(=O)O[C@H]4COC[C@@H]4C)ncc3c(N)c2F)cnc2c1NCCO2` was 2.5

* * *

Target: UniProtKB Q9UKE5
Sequence (Q9UKE5 whole entry): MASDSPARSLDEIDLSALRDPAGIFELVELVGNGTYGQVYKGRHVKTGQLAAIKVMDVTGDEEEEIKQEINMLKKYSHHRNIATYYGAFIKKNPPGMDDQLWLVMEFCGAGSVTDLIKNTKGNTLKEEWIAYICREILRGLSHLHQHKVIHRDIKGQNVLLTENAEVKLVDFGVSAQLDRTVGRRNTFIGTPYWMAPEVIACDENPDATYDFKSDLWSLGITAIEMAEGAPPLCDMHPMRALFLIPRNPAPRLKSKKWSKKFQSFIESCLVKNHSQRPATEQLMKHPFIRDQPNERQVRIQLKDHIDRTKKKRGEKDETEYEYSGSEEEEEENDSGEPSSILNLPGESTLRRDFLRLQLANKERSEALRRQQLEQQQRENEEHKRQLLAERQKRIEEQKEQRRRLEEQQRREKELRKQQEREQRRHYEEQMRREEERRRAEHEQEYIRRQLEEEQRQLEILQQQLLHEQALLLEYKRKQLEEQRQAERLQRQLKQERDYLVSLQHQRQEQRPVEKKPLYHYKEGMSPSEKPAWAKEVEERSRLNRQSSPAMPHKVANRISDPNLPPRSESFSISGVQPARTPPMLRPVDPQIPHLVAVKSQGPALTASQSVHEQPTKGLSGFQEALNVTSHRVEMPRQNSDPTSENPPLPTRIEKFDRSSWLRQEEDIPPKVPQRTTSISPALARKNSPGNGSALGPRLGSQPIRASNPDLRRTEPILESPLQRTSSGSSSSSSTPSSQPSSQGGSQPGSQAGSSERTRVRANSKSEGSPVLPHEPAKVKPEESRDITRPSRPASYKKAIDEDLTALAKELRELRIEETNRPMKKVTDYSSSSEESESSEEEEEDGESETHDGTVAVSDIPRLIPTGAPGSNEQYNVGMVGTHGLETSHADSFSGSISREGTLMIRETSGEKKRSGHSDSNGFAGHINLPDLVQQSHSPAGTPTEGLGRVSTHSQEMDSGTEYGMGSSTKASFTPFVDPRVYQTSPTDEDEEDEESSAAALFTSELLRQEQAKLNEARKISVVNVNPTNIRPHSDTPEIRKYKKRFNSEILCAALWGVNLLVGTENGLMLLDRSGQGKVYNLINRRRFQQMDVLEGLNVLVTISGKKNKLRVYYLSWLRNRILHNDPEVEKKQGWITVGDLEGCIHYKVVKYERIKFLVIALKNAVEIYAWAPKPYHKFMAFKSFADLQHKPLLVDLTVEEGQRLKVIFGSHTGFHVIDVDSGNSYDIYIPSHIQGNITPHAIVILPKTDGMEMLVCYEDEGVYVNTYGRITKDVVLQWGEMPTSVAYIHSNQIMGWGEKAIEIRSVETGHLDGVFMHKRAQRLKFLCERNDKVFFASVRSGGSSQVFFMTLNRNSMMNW
measurementName: IC50
Please provide the amount together with its unit, number first.

The reported IC50 of the molecule `Cc1c(-c2cc3cc(NC(=O)O[C@H]4COC[C@@H]4C)ncc3c(N)c2F)cnc2c1NCCO2` was 2.3 nM

* * *

Assay: Clearance in Sprague-Dawley rat at 0.5 mg/kg, iv measured for 8 hrs by LC-MS/MS analysis
Format: ADME, organism-based
Conditions: in vivo
measurementName: clearance (mL/min/kg)
Give bare numbers, in mL/min/kg.

For the 2 compounds below, give their clearance values.
1. Cc1c(-c2cc3cc(NC(=O)O[C@H]4COC[C@@H]4C)ncc3c(N)c2F)cnc2c1NCCO2
2. Cc1c(N)cncc1-c1cc2cc(NC(=O)OC3CCOCC3)ncc2c(N)c1F

// result
[39, 38]

For the 2 compounds below, give their clearance values.
1. Cc1c(N)cncc1-c1cc2cc(Nc3cc4n(n3)CC(=O)N(C)CC4)ncc2c(N)c1F
2. Cc1c(-c2cc3cc(NC(=O)OC4CCOCC4)ncc3c(N)c2F)cnc2c1NCCO2

// result
64
17
